# system_tested: CCR5 (UniProt P51681)
# experiment_notes: cell-based or functional assay
Hi! Could you tag entries with CCR5 sequestration (%) (% of control surface CCR5) below 30 as 1, and those at or above as -1? Much appreciated.

Completed entries (count: 5):
RANTES derivative: signature sequence SEQ ID NO: 26 fused to positions 10-68 of native RANTES (SEQ ID NO: 1) (ligand) QGPLSGWLQVCCFAYIARPLPRAHIKEYFYTSGKCSNPAVVFVTRKNRQVCANPEKKWVREYINSLEMS | -1
RANTES derivative: signature sequence SEQ ID NO: 58 fused to positions 10-68 of native RANTES (SEQ ID NO: 1) (ligand) QGPPLMTLQVCCFAYIARPLPRAHIKEYFYTSGKCSNPAVVFVTRKNRQVCANPEKKWVREYINSLEMS | 1
RANTES derivative: signature sequence SEQ ID NO: 18 fused to positions 10-68 of native RANTES (SEQ ID NO: 1) (ligand) QGPPGSYDYSCCFAYIARPLPRAHIKEYFYTSGKCSNPAVVFVTRKNRQVCANPEKKWVREYINSLEMS | -1
RANTES derivative: signature sequence SEQ ID NO: 36 fused to positions 10-68 of native RANTES (SEQ ID NO: 1) (ligand) QGPPLQWRQSCCFAYIARPLPRAHIKEYFYTSGKCSNPAVVFVTRKNRQVCANPEKKWVREYINSLEMS | 1
RANTES derivative: signature sequence SEQ ID NO: 53 fused to positions 10-68 of native RANTES (SEQ ID NO: 1) (ligand) QGPPLMWSQVCCFAYIARPLPRAHIKEYFYTSGKCSNPAVVFVTRKNRQVCANPEKKWVREYINSLEMS | 1

Does this binder meet the criterion CCR5 sequestration (%) (% of control surface CCR5) < 30? RANTES derivative: signature sequence SEQ ID NO: 64 fused to positions 10-68 of native RANTES (SEQ ID NO: 1) (ligand) QGPPLMSLQSCCFAYIARPLPRAHIKEYFYTSGKCSNPAVVFVTRKNRQVCANPEKKWVREYINSLEMS 1
